assay_protocol: Plasma GnRHa after injection of sustained-release microspheres or implants in lampreys
Format: in vivo, sea lamprey
assay_context: plasma; week 1, 2 mm implants injected IP
value_kind: level at 168 h (ng/mL)
Hi! Could you send only the number? It should be in ng/mL, unit omitted.

[Q] Which level at 168 h value is on record for CCNC(=O)[C@@H]1CCCN1C(=O)[C@H](CCCNC(=N)N)NC(=O)[C@H](CC(C)C)NC(=O)[C@@H](C)NC(=O)[C@H](Cc1ccc(O)cc1)NC(=O)[C@H](CO)NC(=O)[C@H](Cc1c[nH]c2ccccc12)NC(=O)[C@H](Cc1c[nH]cn1)NC(=O)[C@@H]1CCC(=O)N1 [[DAla^6, Pro^9Net]-m GnRH, [DAla^6, Pro^9Net]-mammalian GnRH] ?
[A] 1.6

* * *

assay_protocol: Plasma GnRHa after injection of sustained-release microspheres or implants in lampreys
Format: in vivo, sea lamprey
assay_context: plasma; week 1, microspheres injected IP, 75 ug GnRHa/lamprey
value_kind: level at 168 h (ng/mL)
Hi! Could you send only the number? It should be in ng/mL, unit omitted.

[Q] Which level at 168 h value is on record for CCNC(=O)[C@@H]1CCCN1C(=O)[C@H](CCCNC(=N)N)NC(=O)[C@H](CC(C)C)NC(=O)[C@@H](C)NC(=O)[C@H](Cc1ccc(O)cc1)NC(=O)[C@H](CO)NC(=O)[C@H](Cc1c[nH]c2ccccc12)NC(=O)[C@H](Cc1c[nH]cn1)NC(=O)[C@@H]1CCC(=O)N1 [[DAla^6, Pro^9Net]-m GnRH, [DAla^6, Pro^9Net]-mammalian GnRH] ?
[A] 5

* * *

assay_protocol: Plasma GnRHa after injection of sustained-release microspheres or implants in lampreys
Assay type: in vivo, sea lamprey
assay_context: plasma, 75 ug GnRHa/lamprey; week 2, microspheres injected IM
value_kind: level at 336 h
Output should be the measured figure followed by the unit it is expressed in.

[Q] Which level at 336 h value is on record for CCNC(=O)[C@@H]1CCCN1C(=O)[C@H](CCCNC(=N)N)NC(=O)[C@H](CC(C)C)NC(=O)[C@@H](C)NC(=O)[C@H](Cc1ccc(O)cc1)NC(=O)[C@H](CO)NC(=O)[C@H](Cc1c[nH]c2ccccc12)NC(=O)[C@H](Cc1c[nH]cn1)NC(=O)[C@@H]1CCC(=O)N1 [[DAla^6, Pro^9Net]-m GnRH, [DAla^6, Pro^9Net]-mammalian GnRH] ?
[A] 3.1 ng/mL
